- ASSAY: thallium flux activation in parental CHO cells, counter-screen for KCNQ1 potentiator project (AID 493006);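 as to activation: fluorescence ratio of max minus min over baseline after K+ and Tl+ depolarization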
- TEST_CONTEXT: parental CHO-K1 cells, FluxOR thallium flux, at 10 µM
Active and inactive are the calls of the source.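 The calls were made as follows: active = duplicate-averaged activation above buffer control mean plus 5 SD of those controls; inactive = the rest.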
Would you mind answering with one of these outcomes? Yes (active), No (inactive)

[in] Identify the outcome logged in this assay for the compound shown: O=C(c1cccnc1)N1N=C2CCCCCC2C1(O)C(F)(F)F (stereo unspecified)
[out] No

[in] What do you get for CN1C=CC=C/C1=C1\SC(=S)N(Cc2ccccc2)C1=O ?
[out] No

[in] Moving on to COc1ccccc1C(=O)NNC(=O)C(=O)NC1CCCCC1
[out] Yes

[in] Entry to check: O=c1cc(-c2ccccc2)cc(-c2ccccc2)n1O
[out] Yes

[in] Now try Cn1nccc1C(=O)NC(=S)Nc1cc(Cl)cc(Cl)c1 .
[out] Yes

[in] Cool, now CC(C)(C)c1cc(C(=O)NNC(=O)c2ccc(C(F)(F)F)cc2)no1
[out] No

###

- TARGET: Potassium voltage-gated channel subfamily E member 1 (Homo sapiens) + Potassium voltage-gated channel subfamily KQT member 1 (Homo sapiens) (UniProt P15382+P51787)
- ASSAY: KCNQ1/KCNE1 complex potentiators, confirmation, selectivity assay for KCNQ1 potentiator project, thallium flux, CHO-K1 KCNQ1/E1 cells (AID 493186)
- TEST_CONTEXT: FluxOR thallium flux, at 10 µM
Activity calls are given as the source filed them.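 The calls were made as follows: active = mean duplicate activation above the buffer control mean plus 5 SD of those controls; inactive = the rest.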
Pick one and only one: label 1 (active), label 0 (inactive)

[in] Just curious, what result did Cc1ccc(C)c(NC(=S)c2nc3ccccc3s2)c1 get here?
[out] label 0

[in] One more molecule: CC(Oc1ccc2ccccc2c1)C(=O)NNC(=S)NC(=O)c1ccco1 (configuration not stated)
[out] label 1

[in] Do the same for COc1ccc(OCCCC(=O)NNC(=O)CCN2CCN(c3ccccc3)CC2)cc1 please
[out] label 0

[in] Another: Cc1ccc(N(C(=O)Cn2nnc(-c3ccccc3F)n2)C(C(=O)NC2CCCC2)c2ccncc2)cc1 (configuration not stated)
[out] label 0

[in] Input COCCCN1C(=O)C(=O)/C(=C(/O)c2ccc(C)cc2)C1c1ccccc1 (configuration not stated)
[out] label 0

[in] CNC(=O)CSc1nc2c(c(=O)n(C)c(=O)n2C)n1Cc1ccc(C)cc1 , same question.
[out] label 0

[in] Okay, and O=C(Nc1ccc(N2CCCC(O)C2)cc1)c1snc2c(=O)[nH]cnc12 (configuration not stated) ?
[out] label 0

[in] And what about the molecule Cc1cccc(Cn2c(O)c(N=NC(=S)Nc3ccccc3F)c3ccccc32)c1 ?
[out] label 0

[in] Repeat for the following molecule: CCCCS(=O)(=O)/C=C\C=C/S(=O)(=O)CCCC
[out] label 0

[in] Entry to check: CCC(C)NCC(=O)Nc1sc2c(c1C(N)=O)CCC2 (configuration not stated)
[out] label 0

[in] Would you mind doing Cc1ccccc1C(=O)NNC(=S)NC(=O)c1ccc(Cl)cc1Cl as well?
[out] label 1

[in] Continue with CS(=O)(=O)c1ccc(C(=O)OCc2nnc(-c3ccccc3)o2)cc1[N+](=O)[O-]
[out] label 0

[in] Record: O=c1cc2c(nn1Cc1c(Cl)cccc1Cl)-c1ccccc1CC2
[out] label 0

[in] Ok, now Cc1cc(C(=O)NCc2ccc(S(N)(=O)=O)cc2)ccc1[N+](=O)[O-]
[out] label 0

[in] Now this one: Cc1cc(NC(=O)CSCC(=O)OC(C)C(=O)N(C)Cc2ccccc2)no1 (configuration not stated)
[out] label 0

[in] Can you handle S=c1[nH]nc(-c2ccccc2)n1/N=C/c1ccc(-c2ccccc2Cl)o1 next?
[out] label 0

[in] Quick one: Fc1ccc(/C=N/n2c(-c3cccs3)n[nH]c2=S)cc1
[out] label 0

[in] Oc1c(Cl)cc(Cl)cc1/C=N/NC(=S)NC1CC2C=CC1C2 (configuration not stated) , same question.
[out] label 0

[in] Also need O=c1c2cc(Cl)ccc2[nH]c(=S)n1Cc1cccs1 , thanks.
[out] label 0

[in] Then what about the molecule S=C(NN=C1CCCCCC1)Nc1ccc(Cl)cc1 ?
[out] label 0

[in] Request: CC(=O)Nc1ccc(/C=N/NC(=O)c2cccc(S(=O)(=O)N3CCOCC3)c2)cc1
[out] label 0

[in] Also CN(C)CCNc1ncnc2c1sc1nc(N3CCOCC3)c3c(c12)CC(C)(C)SC3 ?
[out] label 0

###

- TARGET: Potassium voltage-gated channel subfamily KQT member 2 (Rattus norvegicus) (UniProt O88943)
- Sequence (O88943 whole entry, looked up): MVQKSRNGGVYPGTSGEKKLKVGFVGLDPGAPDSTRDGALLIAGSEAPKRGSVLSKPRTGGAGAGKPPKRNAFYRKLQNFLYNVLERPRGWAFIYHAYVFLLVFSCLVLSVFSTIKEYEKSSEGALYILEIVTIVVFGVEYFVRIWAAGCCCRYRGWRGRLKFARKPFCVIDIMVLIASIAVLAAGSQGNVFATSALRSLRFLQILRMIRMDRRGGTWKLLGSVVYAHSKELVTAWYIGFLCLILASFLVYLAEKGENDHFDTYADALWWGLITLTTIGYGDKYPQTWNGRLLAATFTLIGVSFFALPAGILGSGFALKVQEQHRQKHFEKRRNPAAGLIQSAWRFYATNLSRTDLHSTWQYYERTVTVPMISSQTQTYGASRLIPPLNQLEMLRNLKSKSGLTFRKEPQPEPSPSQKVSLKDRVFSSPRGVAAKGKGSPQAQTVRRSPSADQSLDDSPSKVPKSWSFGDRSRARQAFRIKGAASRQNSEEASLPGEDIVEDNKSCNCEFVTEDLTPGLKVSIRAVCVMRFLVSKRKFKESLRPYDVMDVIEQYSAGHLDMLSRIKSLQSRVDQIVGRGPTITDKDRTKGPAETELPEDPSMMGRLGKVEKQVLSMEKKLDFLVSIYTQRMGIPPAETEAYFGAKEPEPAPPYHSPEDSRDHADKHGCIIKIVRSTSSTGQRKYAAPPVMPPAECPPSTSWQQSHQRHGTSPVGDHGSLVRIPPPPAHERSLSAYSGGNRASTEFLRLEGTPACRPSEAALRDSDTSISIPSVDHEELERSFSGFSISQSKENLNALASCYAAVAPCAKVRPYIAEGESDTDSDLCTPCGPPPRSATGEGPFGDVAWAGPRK
- ASSAY: rat KCNQ2 channel potentiation, selectivity assay for KCNQ1 potentiator project, KCNQ2-CHO-K1 cells (AID 493009);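 also: assay conditions were tuned for KCNQ1 rather than KCNQ2 modulators; signal is max minus min fluorescence divided by baseline after thallium stimulus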
- TEST_CONTEXT: FluxOR thallium flux fluorescence, at 10 µM, scaled: buffer 0, activator control 100
The source made the active and inactive calls.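 Rule for the calls: active = mean duplicate potentiation above the buffer control mean plus 5 SD of buffer wells; inactive = the rest.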
Please answer using one outcome listed in active, inactive

[in] Status in this test for Cc1cccc(CNC(=O)C2CCCN(c3nn4c(=O)cc(C)nc4s3)C2)c1 (configuration not stated) ?
[out] inactive

[in] Next compound up: Cc1ccc2oc(C(=O)N3CCN(c4cccc(C)n4)CC3)c(C)c2c1
[out] inactive

[in] Can you handle COc1ccc(-c2csc(N(CCCN(C)C)C(=O)c3ccccc3F)n2)cc1 next?
[out] inactive

[in] How about Nc1nnc(SCC(=O)N2CCN(c3ccccc3)CC2)n1-c1ccccc1 ?
[out] inactive

[in] Same for Cc1cc(/C=N/NC(=O)CC#N)c(C)n1-c1ccc([N+](=O)[O-])cc1
[out] inactive

[in] // same read-out, input: COc1cccc(/C=N/NC(=O)C(C)n2nc(C)c([N+](=O)[O-])c2C)c1O (configuration not stated)
[out] inactive

[in] Record: O=C(Nc1ccccc1F)C1C2C=CC3(O2)C1C(=O)N(c1cccnc1)C3C(=O)NC1CCCCC1 (configuration not stated)
[out] inactive

[in] Request: CCCCCCCC/C=C\CCCCCCCC(=O)O
[out] inactive

[in] Ok, now C=C(C)CNC(=S)Nc1nc2c(cc1C(=O)OCC)CCCC2
[out] inactive

[in] Likewise for CCC(C)N(C(=O)COC(=O)c1cc([N+](=O)[O-])ccc1N1CCOCC1)C1CCS(=O)(=O)C1 (configuration not stated) ?
[out] inactive

[in] Next: CCOC(=O)c1c(C)[nH]c(C(=O)Cn2nnc(-c3ccccc3Cl)n2)c1C
[out] inactive

[in] O=C(O)c1ccccc1C(=O)NNc1ccc(Cl)cc1 , same question.
[out] inactive

[in] Next compound: COC(=O)C1=C(C)Nc2nc(-c3ccccc3)nn2C1c1ccc(C)o1 (configuration not stated)
[out] inactive

[in] Next record, please: CC(=O)c1cc2c(cc1NC(=O)CN1Cc3ccccc3C1=O)OCO2
[out] inactive

[in] Lookup S=c1nc(COc2ccccc2)[nH]c2ccccc12
[out] active

[in] Here is the next compound: O=C(NC(=S)Nc1ccc(N2CCOCC2)c(Cl)c1)c1sc2ccccc2c1Cl
[out] inactive

[in] Subsequent entry: Cc1ccc(CNc2nc3c([nH]2)c(=O)n(C)c(=O)n3C)cc1
[out] inactive

[in] How about this compound: Nc1cc(=O)[nH]c(SCC(=O)N2CCN(S(=O)(=O)c3ccc4ccccc4c3)CC2)n1
[out] inactive

[in] // next record COC(=O)c1ccc(NC(=S)NC(=O)c2cc(-c3ccccc3)nc3ccccc23)cc1
[out] active

[in] Next record, please: CC(C)c1nc2n[nH]c(N)c2c2c1CSC(C)(C)C2
[out] inactive

[in] Now give it for CCOC(=O)c1[nH]c2cc(OC)c(OC)cc2c1NC(=O)CN(C)C1CCCCC1 too.
[out] inactive

[in] Please do the same for Oc1c(N=NC(=S)Nc2ccccc2F)c2ccccc2n1Cc1cccc(Cl)c1 as well.
[out] inactive

###

- TARGET: Potassium voltage-gated channel subfamily KQT member 2 (Rattus norvegicus) (UniProt O88943)
- ASSAY: KCNQ2 channel inhibition, selectivity assay for KCNQ1 inhibitor project, cell-based (AID 651746);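 as to inhibition: 0% = buffer control wells and 100% = XE-991 inhibitor control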
- TEST_CONTEXT: KCNQ2 cells, FluxOR thallium flux fluorescence, at 10 µM; active compounds read high
This is one part of the list. Activity calls are given as the source filed them.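 How the source made its calls: active means mean percent inhibition of the KCNQ2 thallium signal more than 5 SD above the buffer-only control wells; inactive means the rest.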
OBSERVABLE: inhibition

# annotated cases, reported inhibition shown
COMPOUND: O=C(Nc1ccc(Cl)c(Cl)c1)N1CC=C(c2ccccc2)CC1
DATA_VALUE: 110% (active)

COMPOUND: Cc1cccc(-n2cc(CN3CCN(C(=O)c4ncn[nH]4)CC3)c(-c3cccc(F)c3)n2)c1
DATA_VALUE: inactive

COMPOUND: CCN1/C(=C\c2ccc3ccccc3[n+]2CC)Sc2cc(C)ccc21
DATA_VALUE: inactive

COMPOUND: c1ccc2c(c1)C(=NC1CCCCC1)NC2=NC1CCCCC1
DATA_VALUE: inactive

COMPOUND: FC(F)Oc1ccc(NC(=S)NCc2ccco2)cc1Cl
DATA_VALUE: inactive

COMPOUND: O=C1CCCN1CCCNC(=S)Nc1ccc(F)c(Cl)c1
DATA_VALUE: 72.7% (active)

COMPOUND: CC1CCCN(C(C(=O)Nc2ccc(C(C)C)cc2)c2ccc3c(c2)OCO3)C1 (stereo not given)
DATA_VALUE: 99.7% (active)

COMPOUND: Cc1ccc(N2CCN(S(=O)(=O)c3ccc(F)cc3)CC2)c(C)c1
DATA_VALUE: 94% (active)

COMPOUND: Cc1cc(Br)ccc1NC(=O)c1cnc(N2CCN(c3ccccn3)CC2)c2ccccc12
DATA_VALUE: 94.7% (active)

COMPOUND: COc1ccc(S(=O)(=O)/N=C2\C=C(NS(=O)(=O)c3ccccc3)C(=O)c3ccccc32)cc1
DATA_VALUE: inactive

[in] So what's the measured inhibition for this one? Cn1nccc1C(=O)NC1CCCc2c1cnn2-c1ccc(F)cc1F (stereo not given)
[out] 60.3% (active)
